system tested: T1, IL-2 receptor βγ complex on pan T cells (human, UniProt P14784 27-551; P31785 23-369)
T1 sequence (looked up) 1: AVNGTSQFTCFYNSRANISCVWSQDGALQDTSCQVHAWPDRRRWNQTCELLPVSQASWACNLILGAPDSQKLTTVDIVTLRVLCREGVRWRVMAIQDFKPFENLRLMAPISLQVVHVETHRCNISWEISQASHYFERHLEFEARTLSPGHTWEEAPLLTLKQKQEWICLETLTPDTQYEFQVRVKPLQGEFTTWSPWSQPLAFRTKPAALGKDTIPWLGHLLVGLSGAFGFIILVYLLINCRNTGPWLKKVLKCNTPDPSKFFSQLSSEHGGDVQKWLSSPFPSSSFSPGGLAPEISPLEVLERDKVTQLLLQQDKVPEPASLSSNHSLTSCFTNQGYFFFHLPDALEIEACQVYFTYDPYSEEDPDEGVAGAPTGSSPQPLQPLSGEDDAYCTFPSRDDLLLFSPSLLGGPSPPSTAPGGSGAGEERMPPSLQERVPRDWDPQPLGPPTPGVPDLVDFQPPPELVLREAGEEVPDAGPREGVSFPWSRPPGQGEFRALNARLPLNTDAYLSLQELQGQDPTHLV
T1 sequence (looked up) 2: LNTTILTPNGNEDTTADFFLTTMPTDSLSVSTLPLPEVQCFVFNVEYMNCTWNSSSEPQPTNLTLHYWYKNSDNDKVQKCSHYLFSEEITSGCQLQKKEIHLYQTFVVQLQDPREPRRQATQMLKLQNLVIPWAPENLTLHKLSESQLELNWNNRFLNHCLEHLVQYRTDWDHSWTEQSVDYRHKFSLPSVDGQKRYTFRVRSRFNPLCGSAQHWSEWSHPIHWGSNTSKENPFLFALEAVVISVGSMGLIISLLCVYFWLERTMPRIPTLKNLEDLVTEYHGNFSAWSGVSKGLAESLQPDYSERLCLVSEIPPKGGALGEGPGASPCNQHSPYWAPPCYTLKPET
assay remarks: cell-based or functional assay
Bridges are numbered along the chain shown (N, C = ends). Primed or numbered codes have the meaning given here. [ ]: non-standard residue; d: D form. cleavable peptide, 4x polyethylene glycol = not defined here; Ygp = O-(8x polyethylene glycol-amino)-tyrosine; Yn3 = O-(9x polyethylene glycol-azido)-tyrosine; cleavable moiety, PEG9 = not defined here; PEG9″ = 9x polyethylene glycol; hSer = N[C@@H](CCO)C(=O)O; Nle = CCCC[C@H](N)C(=O)O
measurement kind: Average EC50, pSTAT5 assay in pan T cells, intact molecule (nM)

# binder, value units, obs value
measured = [
    ("CMP-161 (ligand, linker N-32 via PEG9″; ends not checked) PLGLAGAPTSSSTKKTQLQLEHLLLDLQ[Nle]ILEGINNYKNPKLTR[Nle]L[hSer][Yn3]KF[Ygp][Nle]PKKATELKHLQCLEEELKPLEEVL[hSer]LAQSKNFHLRPRDLISNINVIVLELKGSETTF[hSer]CEYADETATIVEFLNRWITFSQSIISTLT", "nM", 29.4),
    ("CMP-152 (ligand, linker N-38 via 1,5‑pentanedioic acid‑9x polyethylene glycol) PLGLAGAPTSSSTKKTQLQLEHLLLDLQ[Nle]ILNGINNYKNPKLTR[Nle]L[hSer][Yn3]KF[Ygp][Nle]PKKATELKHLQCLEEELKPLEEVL[hSer]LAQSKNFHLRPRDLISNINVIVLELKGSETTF[hSer]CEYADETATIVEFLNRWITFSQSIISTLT", "nM", 16.1),
    ("CMP-160 (ligand, linker N-26 via cleavable moiety, PEG9; ends not checked; also: cleavable moiety sequence not given here) APTSSSTKKTQLQLEHLLLDLQ[Nle]ILEGINNYKNPKLTR[Nle]L[hSer][Yn3]KF[Ygp][Nle]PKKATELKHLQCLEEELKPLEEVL[hSer]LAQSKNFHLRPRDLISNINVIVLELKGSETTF[hSer]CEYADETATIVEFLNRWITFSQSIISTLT", "nM", 27.8),
    ("CMP-151 (ligand, disulfide 58-105; bridge N-23; not fully specified (bridges)) APTSSSTKKTQLQLEHLLLDLQKILNGINNYKNPKLTR[Nle]L[hSer][Yn3]KF[Ygp][Nle]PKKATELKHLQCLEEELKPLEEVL[hSer]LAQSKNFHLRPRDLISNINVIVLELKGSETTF[hSer]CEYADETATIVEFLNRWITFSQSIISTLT", "nM", 28.2),
    ("CMP-156 (ligand, linker N-19 via cleavable peptide, 4x polyethylene glycol; not fully specified; reading uncertain) APTSSSTKKTQLQLEHLLEDLQ[Nle]ILNGINNYKNPKLTR[Nle]L[hSer][Yn3]KF[Ygp][Nle]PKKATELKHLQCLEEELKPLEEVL[hSer]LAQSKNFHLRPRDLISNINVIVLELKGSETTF[hSer]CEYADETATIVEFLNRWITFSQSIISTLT", "nM", 86),
]
